- assaySummary: Panc-1005 Cancer Cell Toxicity qHTS against the NCATS CANVASS Library (AID 1347349); further: nearly all actives have a fitted effect of over 60% in size
- settings: Panc-1005 viability, CellTiter-Glo luminescence, 72 h; series mostly up to 38.3 µM
- Source text: Natural products and their derivatives continue to be wellsprings of nascent therapeutic potential. […] To address this issue, the Canvass library of natural products was assembled (https://tripod.nih.gov/canvass), in collaboration with academic and industry researchers, for quantitative high-throughput screening (qHTS) across a diverse set of cell-based and biochemical assays. […]
Records with an inconclusive call do not appear. The source made the active and inactive calls. The call rests on the fitted dose curve; in most records, active means well fitted cell-killing curve with a large enough effect; inconclusive means small, poorly fitted or top-dose-only effect; inactive means flat fitted curve, though single readings scatter.
Assign a class; possible classes are 1 (yes) = active, 0 (no) = inactive

Examples with answers:
Input: Given CC1C(=O)C23CCC1C[C@]21O[C@@H]2C(C)(C)C=CC(=O)[C@@]23COC1=O (some centres not stated) , state the outcome it received in this test.
Output: 0 (no)

Input: Now consider CC1(C)C=Cc2c(ccc3c2OC[C@@H](c2ccc(O)cc2O)C3)O1 .
Output: 0 (no)

Input: One more molecule: COc1ccc(CCCc2cc(O)c(OC)c(O)c2)c(O)c1O
Output: 0 (no)

Input: Then this molecule: C[C@@H]1C(=O)[C@]23CC[C@H]1C[C@]21O[C@H]2C(C)(C)C=CC(=O)[C@]23COC1=O
Output: 0 (no)

Input: Next: CC1(C)[C@H](Br)CC[C@]23C[C@]4(C)C(=O)CC12C[C@H]34
Output: 0 (no)

---
Input: I would be grateful if you could indicate the recorded call for C/C(=C\[C@H](C)C(=O)CCCC1CC(=O)NC(=O)C1)C(O)[C@@H](C)[C@H](O)C/C=C/CC/C=C/C(=O)O (some centres not stated) .
Output: 0 (no)

Input: Next molecule: CCC[C@@H](C)/C=C(\C)[C@H](O)[C@H](C)/C=C/CC[C@@H](O)[C@H](C)[C@H](O)[C@H](C)[C@H](O)[C@H](C)[C@H]1O[C@H]([C@H](C)C(=O)O)CC[C@@H]1C
Output: 1 (yes)

Input: Field entry: C/C=C/C=C/C1(O)C2C=C3C(=O)CC45C(=O)C(O)=C(C)C(=O)C4C1C1(C(=O)C(O)=C(C)C(=O)C351)C2C (configuration not stated)
Output: 0 (no)

Input: Field entry: C[C@@H](O)[C@H]1OC(=O)C=C2[C@]3(C)[C@H]4[C@H](OC(=O)[C@@]4(C)[C@@H](O)[C@H]4O[C@H]43)[C@H]3O[C@@]231
Output: 1 (yes)
